Target: SphK2 (Homo sapiens)
Sequence (Q9NRA0 whole entry, species assumed): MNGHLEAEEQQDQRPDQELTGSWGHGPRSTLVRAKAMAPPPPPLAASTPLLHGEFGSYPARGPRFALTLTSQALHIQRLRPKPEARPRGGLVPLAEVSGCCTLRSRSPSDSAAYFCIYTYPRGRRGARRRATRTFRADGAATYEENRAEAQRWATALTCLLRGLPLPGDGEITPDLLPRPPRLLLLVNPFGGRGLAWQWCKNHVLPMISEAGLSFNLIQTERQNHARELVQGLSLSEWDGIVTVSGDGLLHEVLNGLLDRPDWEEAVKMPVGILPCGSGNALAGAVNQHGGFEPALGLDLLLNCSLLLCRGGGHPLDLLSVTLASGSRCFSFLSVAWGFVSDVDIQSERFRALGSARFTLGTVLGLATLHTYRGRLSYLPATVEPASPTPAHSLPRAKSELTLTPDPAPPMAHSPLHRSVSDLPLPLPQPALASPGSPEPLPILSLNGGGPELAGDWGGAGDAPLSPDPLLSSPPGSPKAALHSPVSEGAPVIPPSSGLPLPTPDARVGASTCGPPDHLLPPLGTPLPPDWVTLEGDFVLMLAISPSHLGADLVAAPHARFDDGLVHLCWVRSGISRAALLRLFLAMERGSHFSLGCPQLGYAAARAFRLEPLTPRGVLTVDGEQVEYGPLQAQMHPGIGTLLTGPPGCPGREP
measurement.type: Ki (µM)
// return numeric value only (unit: µM, not printed)

Query the reported Ki for SphK2 (Homo sapiens); item: CCCCOc1ccc(CC/C=C2\SC(=O)N(CCN)C2=O)cc1 [K145]
6.4

Hey, just so you know, these numbers are from patent US9598384B2.
